# test_details: folding stability dG unfold from chymotrypsin proteolysis; higher = more stable
The entries below are paired with their reported folding stability dG unfold.
Answer format: numeric, kcal/mol implied, no suffix.

Recorded results for 2 sequences are shown here.
sequence	unit_name	folding stability dG unfold
SAGGSAGGSAGKIRDPNGNPFQIKDVEVEPPGPGDPYISIEYPDNGEEFTLPPEDAEDLFSAGGSAGGSAGG [r17_517_TrROS]	kcal/mol	2.13
SAGGSAGGSAGMKKNEKLITELTFEGPDVYVKITIEKTFDPEGNKIYFKAKIEVFAPGELSAGGSAGGSAGG [r11_237_TrMRF]	kcal/mol	4.06

Query (sequence): SAGGSAGGSNLPAGQEIWFPIEIRIEMEMPVRDNGEPIWRMRMTMEHTIMLSIKVKPASPEDASAGGSAGGS [r20_14_TrROS] ; field requested: folding stability dG unfold
5.11

Query (sequence): SAGGMKVEVEKDPIKDGTTITVETGLDPEEVRAFLEELLGPPLEDVTFETAPDGTLVVTARVPPDVGSAGGS [r16_605_JUSTAS] ; field requested: folding stability dG unfold
0.564

Query (sequence): SAGGSAGGSLKPGQPYIMIRIKIQHPNGNTRTFNIMVPWNDIPQILDFLESHGFKIKDIEIFPSAGGSAGGS [r12_986_TrROS] ; field requested: folding stability dG unfold
5.42

---

# test_details: folding stability dG unfold from trypsin proteolysis; higher = more stable
readout_name: folding stability dG unfold
Write the numeric value and follow it with the unit.

Recorded results for 2 sequences are shown here.
sequence	readout_name	meas_value
SAGGSAGGSKTIKIEIEKMSEEELKNLTAEEIAKLLGVKEVKVTKEKIEITLTEEELKKLEKKSAGGSAGGS [r12_178_TrROS_Hall]	folding stability dG unfold	0.257 kcal/mol
SAGGPPRTVTVFVNDPDGNTYTFTFSDSVPLSTVVANVSKTLGVPLTVDSVTVHPDGTVTITVTNPGSAGGS [r8_285_TrMRF]	folding stability dG unfold	4.57 kcal/mol

Query (sequence): SAGGSAGGSAGDEWITIWFLFPSPEQAKDIADPLASNGLNIDVETHRMPDGNYWVNITIPSAGGSAGGSAGG [r11_677_TrROS] ; field requested: folding stability dG unfold
2.21 kcal/mol

Query (sequence): SAGSKTISISVPGNWNIEELKAFLSTLPDNVTVYIFYPNKVYVGTVDKKNINLSADSSYDGFKVLVVVPSAG [r5_373_TrMRF] ; field requested: folding stability dG unfold
2 kcal/mol

Query (sequence): SAGGSAGGSAGGLEIVKEVIKNPLKNEPVEVLILIEKKEEPIEKTDLFEIPVKITIIPLSAGGSAGGSAGGS [r10_459_JUSTAS] ; field requested: folding stability dG unfold
1.29 kcal/mol

Query (sequence): SAGGSAGGSAGGDAILIEVESPEDAVEAARELAEKEFGIDPENFPINVVVDEPDGKALIASAGGSAGGSAGG [r7_387_TrMRF] ; field requested: folding stability dG unfold
0.743 kcal/mol

Query (sequence): SAGGSAGGSAGGSFELVGLVSEFEDENGIPVRVFKAKNPLLGYEFLVVVLPNGEVFFLPSAGGSAGGSAGGS [r10_1123_TrMRF] ; field requested: folding stability dG unfold
2.8 kcal/mol

Query (sequence): SAGGDEIAKEIANHAREQGYKVEVKVERDEDGMVKIDVEMSMPNGRRVTFSITINPDGIEIQSIEVTPSAGG [r13_203_TrROS] ; field requested: folding stability dG unfold
2.65 kcal/mol

Query (sequence): SKVKVEVVEVKYNKETKKFTVKLKVYNEDGELIEEIELEFPESEEEVLKKAEELAKELAEKYGLKIEIKPSA [r9_31_TrROS_Hall] ; field requested: folding stability dG unfold
2.41 kcal/mol

Query (sequence): SAGGSAGGSAGGMKVLVIFEDNKIPRVVSEEELKKIPLPFKIIPLGPDPEEAKKILEKSSAGGSAGGSAGGS [r10_419_TrMRF] ; field requested: folding stability dG unfold
0.616 kcal/mol

Query (sequence): SAGGMVFTITVRNPDGTVVELPFDVSDVTITPKNGDLYITVAGGKVLTLKTDEVLDIDPAAIAAANAASAGG [r13_925_JUSTAS] ; field requested: folding stability dG unfold
0.901 kcal/mol

Query (sequence): SAGGSAGGSAGGMIEKIEVTKLPDGTYKVTITIPLPNGPVITKTITIPPSETVEDAIAKLSAGGSAGGSAGG [r7_54_JUSTAS] ; field requested: folding stability dG unfold
2.54 kcal/mol

Query (sequence): SAMTPEEIKERLAAELPPSAEVMTTETFKEGDVEYVKITLRTPDSLSEATYNLETGEIERTPIGLDVPQSAG [r14_737_JUSTAS] ; field requested: folding stability dG unfold
0.423 kcal/mol

Query (sequence): SAMEVIELEFPSVEELEAALKEKFNVEVEKLPDGTKRIKVEVDGELVLIEITDDKVRIRIISKEELEKLSAG [r14_402_TrROS_Hall] ; field requested: folding stability dG unfold
3.05 kcal/mol

---

# test_details: folding stability dG unfold (combined trypsin and chymotrypsin); higher = more stable
The entries below are paired with their reported folding stability dG unfold.
Answer format: numeric, kcal/mol implied, no suffix.

Recorded results for 3 sequences are shown here.
sequence	folding stability dG unfold / kcal/mol
STITIEVETPEELEKALVEAEKLVEKGKDVKIEIFVRNENGETLKLTFDIKQLPDGIPVLEIEVEPVPPPSA [r9_1023_TrMRF]	2.74
SMTITIVVEAPPEEAKEKAEELEKELKEKLDKLREEAKKKGLSEEEIEEELKIKIKVVVVSKEDLEKLKPSA [r9_961_TrROS_Hall]	0.431
SAGEKEVIEIEVRVTVVRRLPEDLSEEQRKALEDELEVEEVTVRVRFDLDTGRIYVEFEDGSRLEFELPSAG [r5_701_TrROS_Hall]	3.16

Here's the next entry for you.
Query (sequence): SMGVKIEIDKEIIEKAIEEGKTFEADAKIKIEAYNPKTGKKIAEAEKIVKIRLEIEPPKAEPDPETGKPESA [r9_396_TrMRF] ; field requested: folding stability dG unfold
0.633

---

# test_details: folding stability dG unfold (combined trypsin and chymotrypsin); higher = more stable
// class assignment uses folding stability dG unfold with these ranges: group 1: < 0.4 kcal/mol; group 2: ≥ 0.4 kcal/mol and < 4 kcal/mol; group 3: ≥ 4 kcal/mol

Some solved cases for reference:
sequence	label_class
SAGGSAGGSAGGSQELTIKIPPGEPDVRIFFPDGGEEHEIPPGDEREIELSPDKIAVQPSAGGSAGGSAGGS [r10_46_TrROS]	group 1
SAGGSAGGSDKYVVVIRVVNKETKKVTTLVFEGLKTPEELKAAVEALLPPGVVKVEIRVVKLPSAGGSAGGS [r20_29_TrROS_Hall]	group 2
MFKPGTKVTFGDKTVEVPEGDELYIFEGKVFGTSEVEAVLENMSDDAVGYKLVVEDETGKIVKVEEFVFKPS [r1_304_TrMRF]	group 1
SSAEEIVEKLKKELEEKLPEDYKITSVTLTKSPDGIVTAPMTIKSSDGVESTVTVTYDLKTGKITIEVNSSA [r9_219_JUSTAS]	group 3
SAGKTIVVPTEEEAEKLAKELAEETGKEVEIVKVEKEKKKDGYEVYTIKVKLKDNNKTIEIKIVRPKEKSAG [r5_173_TrROS_Hall]	group 2
SAGGSAGGSAGLAEKLRDEIRESIKGPDGLEVPDDVELLSIDVPEDSAFVEVRFPADLPVSAGGSAGGSAGG [r17_519_TrMRF]	group 1
SAGGSAELAKALGLKVTVEVEEEDGYLTVKVTVTGPNGEEKTFTMVIKIEPLPPPKKVKKGDKKNKSAGGSA [r15_843_TrROS_Hall]	group 2
SAGPKIVEVKPSNGKLEITVEIPVPGAPVLFLNPAKNATIESDPNGRITITLDSEGEYEIIIGNPVFDSAGG [r19_227_TrMRF]	group 1

Hi there! Could you help me figure out the category for SAGGSAGGSAGGTIEELAEKLPNVDLKPVEPGPGMRRIKAQPPNGKKFTIMVDDGKIHIQSAGGSAGGSAGG [r7_26_TrROS] please?
group 1

Hi there! Could you help me figure out the category for SAGGSAGGSANPRTITVQYPVDPNGKPLPAEELADELQNEPFKVTDPQWNPEDGYVEDTIEVSAGGSAGGSA [r18_466_TrROS] please?
group 1

Hi there! Could you help me figure out the category for SAGGSAGGSSLKPGQELELTLTLRVEVEVEVYENGKPVERYRVEREVRLTLRLKLPAASLEDLSAGGSAGGS [r20_14_TrROS_Hall] please?
group 3

Hi there! Could you help me figure out the category for SAGGMVTLTYTDLVEEDPEVKAAKARELAEELREKGYTVTDATFDPEAGTLTITVSADDATLEEIAASAGGS [r8_344_TrMRF] please?
group 2

Hi there! Could you help me figure out the category for SAGGSAGGSAGGSAPYPNTVVPTPLLSSVVTETTVEFFPDGTVVPVSTTTTVVLVYRLLSAGGSAGGSAGGS [r4_288_JUSTAS] please?
group 3

Hi there! Could you help me figure out the category for SAGGSAGGSAGMITIERIPGSGKLVITITDPGSGKVLTIPFDNADPKEALAKAKELLKKLSAGGSAGGSAGG [r17_386_JUSTAS] please?
group 2
